Tested on: SW-620 colon
Procedure details: NCI tumour cell line growth inhibition, 48 h; in the data active means GI50 below about 0.43 µM; inactive means the rest
Outcomes: yes (active), no (inactive)

| Smi | Label class |
| --- | --- |
| Fc1cccc(COc2ccc(Nc3ncnc4onc(-c5ccccc5)c34)cc2)c1 | yes |
| O=S(=O)(N=C1C(Cl)=C(Cl)C(=NS(=O)(=O)c2ccccc2)C(Cl)=C1Cl)c1ccccc1 | no |
| COc1cc(-n2ccnc2-c2ccc3ccccc3c2)cc(OC)c1OC | yes |
| COc1cc2nc(Nc3cccc(Cl)c3)nc(N)c2cc1OC | no |
| COc1cc2nc(N3CCCN(C)CC3)nc(NC3CCN(Cc4ccccc4)CC3)c2cc1OC | no |

====

System: SK-MEL-5 melanoma
Procedure details: NCI tumour cell line growth inhibition, 48 h

| Compound | Qualifier symbol | TGI, µM |
| --- | --- | --- |
| Nc1ncc(-c2ccc3ncnc(Nc4cccc(Cl)c4)c3c2)cn1 | > | 100 |
| CC(=O)Nc1nc(C)c(S(=O)(=O)NC(=O)NC2NC(=O)NC2=O)s1 (stereo not given) | > | 100 |
| O=C1c2ccccc2-c2c3c(cc4ccnc1c24)OCO3 | = | 8.66 |
| COC(=O)c1cc2c(c(C(=O)OC)c1)CCC2 | > | 100 |
| CCOC(=O)c1c(N)sc2c1CC(C)CC2 (stereo not given) | = | 37.7 |
| CN1C(=O)CCC(N2C(=O)c3cccc(NCCOCCOCCNC(=O)c4cc5c(o4)C(=O)c4ccccc4C5=O)c3C2=O)C1=O (stereo not given) | = | 0.652 |
| O=C1c2ccccc2C(=O)N1CCc1ncc(-c2ccccc2)[nH]1 | > | 100 |
| CCOC(=O)c1[nH]c2cc(Cl)ccc2c1[C@@H](C(=O)NC(C)(C)C)N(CC)C(=O)CCCCC#Cc1cccc2c1CN(C1CCC(=O)NC1=O)C2=O (stereo not given in full) | = | 2.56 |
| CCOP(=O)(CC(=O)C1CC1)OCC | > | 100 |
| COc1ccc(/[N+]([O-])=C/c2ccc(OC(=S)S)c(OC)c2)cc1 | = | 93.2 |

====

Tested on: NCI-H522 lung
Procedure details: NCI tumour cell line growth inhibition, 48 h
Listing of entries alongside the reported TGI.
Recorded metric: TGI

| Compound | Assay value |
| --- | --- |
| O=[N+]([O-])c1nccn1CC(O)c1ccccc1 (stereo not drawn) | > 100 µM |
| Nc1ncnc2c1ncn2[C@H]1C=C[C@@H](NO)C1 | > 100 µM |
| NC(=O)c1cc(N2CC2)c([N+](=O)[O-])cc1[N+](=O)[O-] | > 200 µM |
| CC(C)(C)c1ccc2c(c1)OP1(Oc3c(Cl)cc(Cl)c4cccnc34)(O2)Oc2ccc(C(C)(C)C)cc2O1 | 8.45 µM |
| COC(=O)Nc1nc2ccc(NS(=O)(=O)c3cccs3)cc2[nH]1 | 29.9 µM |
| CN(C)Cc1cc(Cl)c(O)c(CN(C)C)c1 | > 100 µM |
| O=C1c2c(c(=O)[nH]c3ccccc23)[C@H](c2ccccc2)[C@@H]2CCCN12 | > 100 µM |
| CC1OC(OC2C(O)COC(OC3C(C)OC(OC4C(OC(=O)[C@]56CCC(C)(C)C[C@@H]5C5=CCC7[C@@]8(C)C[C@H](O)[C@H](OC9OC(CO)C(O)C(O)C9O)[C@@](C)(CO)[C@@H]8CC[C@@]7(C)[C@]5(C)CC6)OCC(O)C4O)C(O)C3O)C2O)C(O)C(O)C1O (stereo partly drawn) | > 100 µM |
